Recorded values, source patent US20110269811A1.

target: Human SSAO (Homo sapiens, UniProt Q16853); construct: rat lung or human umbilical cord homogenates were prepared by chopping the freshly removed tissue; from tissue; host or cells: human umbilical cord homogenate (25,000 g supernatant); assay: In vitro inhibition of SSAO activity, human umbilical cord homogenate, 14C-benzylamine; assay type: biochemical; details: as restated in Example 46; read-out: IC50 for human SSAO
Sequence (Q16853 whole entry): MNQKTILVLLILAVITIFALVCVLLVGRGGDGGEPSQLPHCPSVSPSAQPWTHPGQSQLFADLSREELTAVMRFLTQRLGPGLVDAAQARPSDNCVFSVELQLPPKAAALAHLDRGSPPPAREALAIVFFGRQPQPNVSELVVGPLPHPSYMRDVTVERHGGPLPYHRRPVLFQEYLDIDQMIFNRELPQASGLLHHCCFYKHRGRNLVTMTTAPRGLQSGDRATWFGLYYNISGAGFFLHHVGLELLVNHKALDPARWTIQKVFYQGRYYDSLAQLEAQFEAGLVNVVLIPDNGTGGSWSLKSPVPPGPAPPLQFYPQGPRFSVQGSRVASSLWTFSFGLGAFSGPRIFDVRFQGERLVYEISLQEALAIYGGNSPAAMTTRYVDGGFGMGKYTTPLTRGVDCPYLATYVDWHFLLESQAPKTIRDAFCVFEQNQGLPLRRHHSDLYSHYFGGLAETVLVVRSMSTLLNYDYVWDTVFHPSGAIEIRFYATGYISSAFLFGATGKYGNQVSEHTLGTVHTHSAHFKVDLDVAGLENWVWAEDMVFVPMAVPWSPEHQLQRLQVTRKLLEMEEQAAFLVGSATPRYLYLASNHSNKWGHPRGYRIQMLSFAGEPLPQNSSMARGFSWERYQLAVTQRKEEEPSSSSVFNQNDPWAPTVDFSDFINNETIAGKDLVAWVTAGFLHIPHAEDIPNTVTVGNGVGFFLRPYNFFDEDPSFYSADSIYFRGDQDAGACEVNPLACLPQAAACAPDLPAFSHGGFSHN
outcome.measure: IC50 (nM)

| compound | outcome.measure | result.unit | reported.value |
| --- | --- | --- | --- |
| COc1ccc(C/C(=C/F)CN)cc1.Cl [Compound I-1-Z, hydrochloride] | IC50 | nM | 18 |

###

Structures can show the parent of a compound that is named as a salt.
Measured melting point values are reported for all entries that follow.
outcome.measure: melting point

| compound | reported.value |
| --- | --- |
| CC(C)c1ccc(C/C(=C/F)CN)cc1.Cl [Compound I-14-Z] | 175 to 176 °C |
| COc1ccc(C/C(=C\F)CN)cc1OC.Cl | 204 to 205 °C |
| COc1ccc(C/C(=C/F)CN)cc1F (as salt: hydrochloride) [Compound I-21] | 170 °C (dec.) |
| Cl.NC/C(=C/Cl)CCc1cc(F)cc(C(F)(F)F)c1 [Compound I-51-E] | 96 to 97 °C |
| Cc1ccc(C/C(=C/F)CN)cc1F (as salt: hydrochloride) | 160 to 161 °C |
| NC/C(F)=C\Cc1cccc(C(F)(F)F)c1 (as salt: hydrochloride) [II-2] | 145 to 147 °C |
| Cc1cccc(C/C(=C/F)CN)c1 (as salt: hydrochloride) [Compound I-13] | 118 to 119 °C |
| Cc1cccc(C/C=C(/F)CN)c1.Cl [II-6-E] | 195 to 196 °C |
| NC/C(=C\F)Cc1ccc(F)cc1 (as salt: hydrochloride) | 139 to 140 °C |
| NCC(=CF)Cc1cccc(O)c1 (as salt: citrate) | 145 to 146 °C |

###

Biological target: Recombinant human MAO-A (Homo sapiens, UniProt P21397)
Construct: purchased BD Biosciences (MA, USA)
Sequence (P21397 whole entry): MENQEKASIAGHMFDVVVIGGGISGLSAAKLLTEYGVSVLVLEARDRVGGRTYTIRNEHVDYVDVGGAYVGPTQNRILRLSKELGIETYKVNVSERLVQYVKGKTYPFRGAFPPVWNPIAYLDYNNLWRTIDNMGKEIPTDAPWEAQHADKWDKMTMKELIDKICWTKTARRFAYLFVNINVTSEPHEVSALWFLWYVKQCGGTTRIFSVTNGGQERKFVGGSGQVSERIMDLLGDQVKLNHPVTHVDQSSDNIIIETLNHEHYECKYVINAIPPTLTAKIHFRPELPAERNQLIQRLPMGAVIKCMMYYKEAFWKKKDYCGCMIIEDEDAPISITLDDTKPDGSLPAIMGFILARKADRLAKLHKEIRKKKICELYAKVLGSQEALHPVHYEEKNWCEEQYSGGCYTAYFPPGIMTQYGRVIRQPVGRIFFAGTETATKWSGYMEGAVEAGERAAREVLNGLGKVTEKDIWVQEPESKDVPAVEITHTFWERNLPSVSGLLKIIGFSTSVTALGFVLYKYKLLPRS
Assay: MAO-A activity, colorimetric method, tyramine substrate
Assay type: biochemical
Details: ratio of IC50 for MAO-A to IC50 for SSAO
Method: The specificities of the different SSAO inhibitors was tested by determining their abilities to inhibit MAO-A and MAO-B activities in vitro. Recombinant human MAO-A and human MAO-B enzymes were obtained from BD Biosciences (MA, USA). MAO activity was measured using the colorimetric method essentially as described (Holt, A. et al. (1997) Anal. Biochem. 244: 384). A pre-determined amount of inhibitor diluted in 0.2M potassium phosphate buffer, pH 7.6, was added to each well, if required. […]
Listed here are molecules together with their documented Specificity of SSAO on MAO-A.

| smi | assay.target | Specificity of SSAO on MAO-A |
| --- | --- | --- |
| COc1cccc(C/C=C(/F)CN)c1.Cl | Recombinant human MAO-A (Homo sapiens, UniProt P21397) | 50000 |
| Cc1cccc(C/C=C(/F)CN)c1.Cl | Recombinant human MAO-A (Homo sapiens, UniProt P21397) | 7692 |
| CC(C)Oc1ccc(C/C(=C/F)CN)cc1.Cl | Recombinant human MAO-A (Homo sapiens, UniProt P21397) | 7000 |
| COc1ccc(CC/C(=C\Cl)CN)cc1.Cl | Recombinant human MAO-A (Homo sapiens, UniProt P21397) | 146 |
| Cl.NC/C(F)=C\Cc1ccccc1 | Recombinant human MAO-A (Homo sapiens, UniProt P21397) | 12120 |
| COc1ccc(CC/C(=C/F)CN)cc1.Cl | Recombinant human MAO-A (Homo sapiens, UniProt P21397) | 21 |
